Listing of recorded binding signal by entry.
Molecular target: d-enCas12a-Ultra (Acidaminococcus sp., UniProt U2UMQ6 1-1307, E174R;S542R;K548R;M537R;F870L;D908A;E993A;D1235A)
Assay: Spec-seq (native PAGE EMSA with sequencing of bound and unbound); 25 mM Tris-HCl pH 7.4, 150 mM KCl, 5 mM MgCl2, 10% glycerol, 1 mM DTT, 40 ng/uL salmon sperm DNA; 400 nM Cas12a, 480 nM crRNA, 50 nM library, 37 C 1 h; native PAGE at room temperature; high values mean tight binding;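 also: relative affinity from the bound to unbound sequence frequency ratio in Spec-seq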
Details: protein: recombinant
# unit: lnKA | format: bare number

{"BINDER": "TTCA (dsDNA) DNA 1: GCTATCTAGTGCTCAGTACGCACTGTTCAAGGAAACTTCTGGCAGGACCAGGTCATGAGATCGGAAGAGCACACGTCTGAACTCCAGTCA DNA 2: TGACTGGAGTTCAGACGTGTGCTCTTCCGATCTCATGACCTGGTCCTGCCAGAAGTTTCCTTGAACAGTGCGTACTGAGCACTAGATAGC RNA: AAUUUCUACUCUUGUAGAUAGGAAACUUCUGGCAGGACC", "TEST_RESULT": -0.166}
{"BINDER": "CCAA (dsDNA) DNA 1: GCTATCTAGTGCTCAGTACGCACTGCCAAAGGAAACTTCTGGCAGGACCAGGTCATGAGATCGGAAGAGCACACGTCTGAACTCCAGTCA DNA 2: TGACTGGAGTTCAGACGTGTGCTCTTCCGATCTCATGACCTGGTCCTGCCAGAAGTTTCCTTTGGCAGTGCGTACTGAGCACTAGATAGC RNA: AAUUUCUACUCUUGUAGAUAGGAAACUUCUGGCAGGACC", "TEST_RESULT": -3.39}
{"BINDER": "AATG (dsDNA) DNA 1: GCTATCTAGTGCTCAGTACGCACTGAATGAGGAAACTTCTGGCAGGACCAGGTCATGAGATCGGAAGAGCACACGTCTGAACTCCAGTCA DNA 2: TGACTGGAGTTCAGACGTGTGCTCTTCCGATCTCATGACCTGGTCCTGCCAGAAGTTTCCTCATTCAGTGCGTACTGAGCACTAGATAGC RNA: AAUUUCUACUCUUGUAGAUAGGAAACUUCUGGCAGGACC", "TEST_RESULT": -1.81}
{"BINDER": "CGAG (dsDNA) DNA 1: GCTATCTAGTGCTCAGTACGCACTGCGAGAGGAAACTTCTGGCAGGACCAGGTCATGAGATCGGAAGAGCACACGTCTGAACTCCAGTCA DNA 2: TGACTGGAGTTCAGACGTGTGCTCTTCCGATCTCATGACCTGGTCCTGCCAGAAGTTTCCTCTCGCAGTGCGTACTGAGCACTAGATAGC RNA: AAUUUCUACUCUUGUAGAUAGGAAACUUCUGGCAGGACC", "TEST_RESULT": -3.31}

Kindly consider the entry below.
Note down binding signal recorded for ATAC (dsDNA) DNA 1: GCTATCTAGTGCTCAGTACGCACTGATACAGGAAACTTCTGGCAGGACCAGGTCATGAGATCGGAAGAGCACACGTCTGAACTCCAGTCA DNA 2: TGACTGGAGTTCAGACGTGTGCTCTTCCGATCTCATGACCTGGTCCTGCCAGAAGTTTCCTGTATCAGTGCGTACTGAGCACTAGATAGC RNA: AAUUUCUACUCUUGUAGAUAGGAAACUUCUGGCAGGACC -1.84

All figures here come from paper PMC8222333.
